# ASSAYED_SYSTEM: GGA1 VHS (Homo sapiens)
# Construct: GGA1_VHS__Q9UJY5_1_157; GST (cleaved yes); made in house; host or cells: Escherichia coli BL21-Gold(DE3)
# Sequence (Q9UJY5 1-157): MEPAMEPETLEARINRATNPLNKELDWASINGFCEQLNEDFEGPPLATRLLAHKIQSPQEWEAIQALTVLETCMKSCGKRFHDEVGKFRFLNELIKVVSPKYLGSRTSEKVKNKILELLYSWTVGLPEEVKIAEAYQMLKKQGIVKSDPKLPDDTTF
# PROTOCOL: FP displacement assay, GGA1 VHS
# Assay type: binding
# EXPERIMENTAL_SETUP: FP displacement, probe FITC-IGF2R 5 nM, 50 mM sodium phosphate pH 7.4, room temperature; at least three technical replicates; read-out: KD values ± SEM
pKd: −log10 of the molar value. Residues, ends and D or L forms follow the SMILES beside them.
PARAMETER: pKd

{"COMPOUND": "CC[C@H](C)[C@H](NC(=O)[C@H](CC(=O)O)NC(=O)[C@H](CC(=O)O)NC(=O)[C@H](CO)NC(=O)[C@@H](NC(=O)[C@@H]1CCCN1C(=O)[C@H](CO)NC(=O)[C@H](CCCCN)NC(=O)[C@H](Cc1ccc(O)cc1)NC(C)=O)[C@@H](C)O)C(=O)N[C@@H](CO)C(=O)N[C@@H](CC(C)C)C(=O)N[C@@H](CC(C)C)C(=O)N[C@@H](Cc1c[nH]cn1)C(=O)N[C@@H](CCC(=O)O)C(=O)N[C@@H](CO)C(=O)N[C@@H](CCC(N)=O)C(=O)N[C@@H](CO)C(N)=O [RNF11_6–21 wt] (Ac-YKSPTSDDISLLHESQS-NH2)", "ASSAYED_SYSTEM": "GGA1 VHS (Homo sapiens)", "PARAMETER": "pKd", "QUANTITATIVE_RESULT": 3.38}
